Tested on: 485368-065-R4-J2-PDC spheroids with HUVEC/MSC, viability;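 also: spheroids exposed to compounds for seven days; 100% = DMSO vehicle control wells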
Experiment: Anticancer human tumor 485368-065-R4-J2-PDC patient-derived pancreatic carcinoma cell line growth inhibition [CLK]
Conditions: second compound 3.16 µM; first compound 1 µM; active compounds read low
RECORDED ENDPOINT: viability, T/C

Worked cases, answers included:
>>> result("O=c1[nH]cc(F)c(=O)[nH]1 + CN1CCN(c2cc(C(=O)Nc3cc4cc(-c5cnn(C)c5)ccc4cn3)ccn2)CC1")
"1.94%"
>>> result("CC(Nc1ccc2c(c1)OCCn1cc(N3C(=O)OCC3C(F)F)nc1-2)C(N)=O (stereo not given) + CN1CCN(c2cc(C(=O)Nc3cc4cc(-c5cnn(C)c5)ccc4cn3)ccn2)CC1")
"2.02%"
>>> result("COC1C=CCC(C)C(C)S(=O)(=O)NC(=O)c2ccc3c(c2)N(CC2CCC21)CC1(CCCc2cc(Cl)ccc21)CO3 (stereo not given) + CN1CCN(c2cc(C(=O)Nc3cc4cc(-c5cnn(C)c5)ccc4cn3)ccn2)CC1")
"2.24%"
>>> result("CCc1c2c(nc3ccc(O)cc13)-c1cc3c(c(=O)n1C2)COC(=O)[C@]3(O)CC + CN1CCN(c2cc(C(=O)Nc3cc4cc(-c5cnn(C)c5)ccc4cn3)ccn2)CC1")
"13%"
>>> result("O=c1[nH]cc(F)c(=O)[nH]1 + CNC(=O)c1ccc(Nc2nc(OC3CCCC3)c3c(-c4ccc5nc(C)oc5c4)c[nH]c3n2)c(OC)c1")
"73.3%"

Entry COc1c(OCCCN2CCOCC2)ccc2c3n(c(=NC(=O)c4cnc(N)nc4)nc12)CCN3 + CN1CCN(c2cc(C(=O)Nc3cc4cc(-c5cnn(C)c5)ccc4cn3)ccn2)CC1 needs its viability, T/C filled in; supply it.
1.38%

Supply recorded viability, T/C for COc1ccc([C@@H](O)c2cc(-c3ncnc4cc(N5CCOCC5)ccc34)c(F)cc2Cl)nn1 + CN1CCN(c2cc(C(=O)Nc3cc4cc(-c5cnn(C)c5)ccc4cn3)ccn2)CC1 here.
1.02%

Return viability, T/C (reported value) for this compound: COc1cccc2c1C(=O)c1c(O)c3c(c(O)c1C2=O)CC(O)(C(=O)CO)CC3OC1CC(N)C(O)C(C)O1 (stereo not given) + CNC(=O)c1ccc(Nc2nc(OC3CCCC3)c3c(-c4ccc5nc(C)oc5c4)c[nH]c3n2)c(OC)c1
8.87%

Note down viability, T/C recorded for C#Cc1c(F)ccc2cc(O)cc(-c3ncc4c(N5CC6CCC(C5)N6)nc(OCC56CCCN5CC(F)C6)nc4c3F)c12 (stereo not given) + CN1CCN(c2cc(C(=O)Nc3cc4cc(-c5cnn(C)c5)ccc4cn3)ccn2)CC1
1.21%
